- measured target: HIV-integrase (Human immunodeficiency virus type 1 group M subtype B, UniProt P12497)
- Construct: Recombinant integrase (0.26 ng) was incubated with the beads
- assay remarks: HIV-Integrase Inhibition Activity (SPA bead strand-transfer assay)
- Type: biochemical
- condition info: Table 1; read-out: Activity (HIV-integrase inhibition, IC50 class)
pIC50: −log10 of the molar value.
quantity kind: pIC50

# example entries with known answers
[[record]]
molecule = "CCC1(CC)OCCn2c1nc(C(=O)NCc1ccc(F)cc1C(=O)NC)c(O)c2=O [Example 120]"
endpoint_result = "7.00 to 8.70"

[[record]]
molecule = "CON(Cc1ccc(F)cc1)C(=O)c1nc2n(c(=O)c1O)CCOC2(C)C [Example 214]"
endpoint_result = "< 6.00"

[[record]]
molecule = "CC1(C)OCCn2c1nc(C(=O)NCc1cccc(C3(C(F)(F)F)N=N3)c1)c(O)c2=O [Example 105]"
endpoint_result = "7.00 to 8.70"


Query block: // pIC50 lookup, key: CC1(C)OCCn2c1nc(C(=O)NCc1ccc(N)cc1)c(O)c2=O [Example 256]
Result block: 6.00 to 7.00

Query block: Look up pIC50: CC1(C)OCCn2c1nc(C(=O)NCc1ccc(F)cc1-n1cnc(C(=O)NS(=O)(=O)c3ccc(F)cc3)n1)c(O)c2=O [Example 68]
Result block: 7.00 to 8.70

Query block: Returns the measured pIC50 for the input molecule. Input: CC1(C)OCCn2c1nc(C(=O)NCCCc1ccc(F)cc1)c(O)c2=O [Example 26]
Result block: 7.00 to 8.70

Query block: Please look up its pIC50: COc1ncccc1-c1ccccc1CNC(=O)c1nc2n(c(=O)c1O)CCOC2(C)C [Example 152]
Result block: 7.00 to 8.70

Query block: May I ask what pIC50 has been recorded for CN(C)c1ccc(CNC(=O)c2nc3n(c(=O)c2O)CCOC3(C)C)cc1 [Example 257] ?
Result block: 7.00 to 8.70

---

- measured target: HIV-integrase (Human immunodeficiency virus type 1 group M subtype B)
- Construct: Recombinant integrase (0.26 ng) was incubated with the beads
- assay remarks: HIV-Integrase Inhibition Activity (SPA bead strand-transfer assay)
- Assay type: biochemical
- condition info: Table 1; read-out: Activity (HIV-integrase inhibition, IC50 class)
pIC50: −log10 of the molar value.
Listed compounds paired with reported pIC50

[[record]]
compound = "CSc1ccccc1CNC(=O)c1nc2n(c(=O)c1O)CCOC2(C)C [Example 112]"
endpoint_result = "7.00 to 8.70"

[[record]]
compound = "CC1(C)OCCn2c1nc(C(=O)NCc1ccccc1N1CCCCC1)c(O)c2=O [Example 254]"
endpoint_result = "7.00 to 8.70"

[[record]]
compound = "CC1(C)OCCn2c1nc(C(=O)NCc1ccc(F)cc1S(=O)(=O)N1CCC1)c(O)c2=O [Example 111]"
endpoint_result = "7.00 to 8.70"

[[record]]
compound = "CC1(C)OCCn2c1nc(C(=O)NCc1cccc3ccsc13)c(O)c2=O [Example 138]"
endpoint_result = "7.00 to 8.70"

[[record]]
compound = "CC1(C)OCCn2c1nc(C(=O)NCc1ccccc1-c1ccc3c(c1)OCO3)c(O)c2=O [Example 187]"
endpoint_result = "7.00 to 8.70"


Query block: Fill in the recorded pIC50 for this compound, with HIV-integrase (Human immunodeficiency virus type 1 group M subtype B) as test system: CC(C)Oc1ccc(CNC(=O)c2nc3n(c(=O)c2O)CCOC3(C)C)cc1 [Example 145]
Result block: < 6.00

Query block: Observed pIC50 on HIV-integrase (Human immunodeficiency virus type 1 group M subtype B) for CC1(C)OCCn2c1nc(C(=O)NCc1ccc3c(c1)CCO3)c(O)c2=O [Example 250] , please.
Result block: 7.00 to 8.70

Query block: So what pIC50 did CN1CCN(c2cc(-c3ccccc3CNC(=O)c3nc4n(c(=O)c3O)CCOC4(C)C)ccn2)CC1 [Example 159] get with HIV-integrase (Human immunodeficiency virus type 1 group M subtype B)?
Result block: 6.00 to 7.00

Query block: Request body: readout pIC50, system HIV-integrase (Human immunodeficiency virus type 1 group M subtype B), query CC1OCCn2c1nc(C(=O)NCc1ccc(F)c(Cl)c1)c(O)c2=O (centres unmarked) [Example 7] . Return the value.
Result block: 7.00 to 8.70

Query block: Given the entry CCC1(CC)OCCn2c1nc(C(=O)NCc1ccc(F)cc1S(=O)(=O)N(C)C)c(O)c2=O [Example 205] , what pIC50 was observed with HIV-integrase (Human immunodeficiency virus type 1 group M subtype B)?
Result block: 7.00 to 8.70

Query block: HIV-integrase (Human immunodeficiency virus type 1 group M subtype B) / pIC50 / CC1(C)OCCn2c1nc(C(=O)NCCCc1ccccc1)c(O)c2=O [Example 217] : value?
Result block: 7.00 to 8.70

Query block: Give recorded pIC50 with HIV-integrase (Human immunodeficiency virus type 1 group M subtype B) for the following compound: CC1(C)OCCn2c1nc(C(=O)NCc1ccc(F)cc1I)c(O)c2=O [Example 73]
Result block: 7.00 to 8.70

Query block: Query the reported pIC50 for HIV-integrase (Human immunodeficiency virus type 1 group M subtype B); item: CC1(C)OCCn2c1nc(C(=O)NCc1cccc3c1S(=O)(=O)CC3)c(O)c2=O [Example 140]
Result block: 7.00 to 8.70

Query block: pIC50 of CC1(C)OCCn2c1nc(C(=O)NCc1ccccc1-c1ccc(F)c(F)c1)c(O)c2=O [Example 188] on HIV-integrase (Human immunodeficiency virus type 1 group M subtype B)?
Result block: 7.00 to 8.70
